biological target: T1, Recombinant human androgen receptor ligand-binding domain (AR-LBD, residues 662-919), DHT-bound (human, UniProt P10275 662-919); test: SPR; BIAcore T200, 25 °C; DHT-bound AR-LBD amine-coupled to a CM5 chip at about 6,800 RU, UBA3 peptide as analyte; 50 mM HEPES pH 7.2, 50 mM Li2SO4, 5% glycerol, 1 mM DTT, 5 mM DHT; 1:1 Langmuir model; triplicate; details: both partners purified
T1 construct: also called AR/NR3C4 LBD; liganded AR-LBD; source: recombinant, expressed as a fusion protein with thioredoxin, purified to homogeneity
pKd: −log10 of the molar value.
Readout name: pKd

Binder	Obs value
STESLQFLLDTCKV (also called UBA3-derived peptide; UBA3 59S-72V peptide; source: synthetic peptide, custom-synthesized at Pepmic) [Synthetic UBA3 peptide S59-V72 (LxxLL motif)]	7.51

Recorded values, source paper PMC5303882.
